Origin of values: paper PMC13242511

# STUDY_SYSTEM: γ-secretase complex (Homo sapiens, UniProt P49768)
# TEST_DETAILS: APP-C99 counter assay (GSI reporter assay)
# Format: cell-based
# COND: 1,25µM; APP-C99 counter assay
PROPERTY: 3p-DR in % of DMSO counter

* CCC(C)(C)c1ccc(S(=O)(=O)Nc2ccc3ncsc3c2)cc1 [CBK043490] | 53.8 % of DMSO
* c1ccc2c(c1)CCN(c1nc3cc4c(cc3s1)OCCO4)C2 [CBK287498] | 59.5 % of DMSO
* O=C(Nc1sccc1C(=O)N1CCOCC1)C(Sc1ccccc1)c1ccccc1 (centres unmarked) [CBK268165] | 84.7 % of DMSO
* CC(=O)Nc1cccc(-c2ccc(Nc3cccc(N(C)C)c3)nc2)c1 [CBK036829] | 49.9 % of DMSO
* FC(F)(F)CCN1CCC2(CC1)NCCc1c2[nH]c2ccc(Cl)cc12 [CBK039331] | 81.3 % of DMSO

====

# Tested on: NOTCH1
# TEST_DETAILS: Western blot analysis of S3-cleaved NOTCH1 (a-N1-V1744)
# Type: cell-based
# COND: Western blot quantification, Supplemental Figure 4K
# Method: Cells were washed in ice-cold PBS and incubated for 30 min on ice with RIPA cell lysis buffer (Thermofisher, cat #89900) containing protease and phosphatase inhibitors (Thermofisher, cat #78442), scraped off and homogenized using a 25G syringe, and subsequently centrifugated for 10 min at > 13,000xg. […] Protein expression levels of western blot bands were quantified using Fiji (V.2.16) with beta-Actin signals for normalisation (Supplemental Table 8). […]
The reader will find reported V1744 (activated N1) band intensity values listed item by item below.
PROPERTY: V1744 (activated N1) band intensity

* CC(C)(C)c1ccc(Oc2ccc(N)cn2)cc1 [CB-103, reference compound] | 20841.8
* Cc1ccc2[nH]c3c(c2c1)CCOC31CCN(Cc2ccccc2-c2ccccc2)CC1 [compound B] | 10802.4
* CC(C)(C(=O)NCC(F)(F)C(F)(F)F)C(=O)N[C@@H]1C(=O)Nc2ccccc2-c2ccccc21 [RO4929097, reference compound] | 4624.07
* CCc1c(C(=O)N(C)Cc2cnn(C(C)C)c2)[nH]c2ccccc12 [compound A] | 20296.9
* NC(=O)c1c(NC(=O)NCc2cccnc2)sc2c1CCC2 [compound D] | 30696.5
* COc1cccc(CNc2ccc(N3CCCCC3)cc2)c1OCc1cccs1 [compound C] | 14466.8
* Cc1nn(-c2nc3ccccc3s2)c(O)c1C1OC(=O)c2ccccc21 (stereo not shown) [compound E] | 44303.5

====

# STUDY_SYSTEM: DHODH (Homo sapiens)
# Construct: purchased Reaction Biology (contract assay)
# Sequence (Q02127 whole entry): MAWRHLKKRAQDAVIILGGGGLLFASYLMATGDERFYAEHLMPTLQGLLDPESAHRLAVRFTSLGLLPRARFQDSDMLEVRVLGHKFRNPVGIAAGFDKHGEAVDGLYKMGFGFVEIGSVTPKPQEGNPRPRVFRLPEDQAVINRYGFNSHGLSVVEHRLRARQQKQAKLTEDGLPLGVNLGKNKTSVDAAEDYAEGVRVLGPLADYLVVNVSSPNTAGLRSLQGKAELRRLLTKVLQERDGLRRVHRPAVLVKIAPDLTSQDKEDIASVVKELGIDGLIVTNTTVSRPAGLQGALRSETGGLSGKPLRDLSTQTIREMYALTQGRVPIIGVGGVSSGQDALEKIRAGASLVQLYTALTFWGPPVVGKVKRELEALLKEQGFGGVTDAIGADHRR
# TEST_DETAILS: DHODH enzyme activity assay (Resorufin fluorescence, Reaction Biology)
# Assay type: biochemical
# COND: dose-range [M] 4.00E-05- 2.03E-09, 3 steps
Labelling: Hill-slope reported below -6 becomes Yes; at or above becomes No.

• NC(=O)c1c(NC(=O)NCc2cccnc2)sc2c1CCC2 [compound D] = No
• COc1cccc(CNc2ccc(N3CCCCC3)cc2)c1OCc1cccs1 [compound C] = Yes
• Cc1nn(-c2nc3ccccc3s2)c(O)c1C1OC(=O)c2ccccc21 (centres unmarked) [compound E] = No
• Cc1ccc2[nH]c3c(c2c1)CCOC31CCN(Cc2ccccc2-c2ccccc2)CC1 [compound B] = No
• CCc1c(C(=O)N(C)Cc2cnn(C(C)C)c2)[nH]c2ccccc12 [compound A] = No
